# STUDY_SYSTEM: furin, P09958;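 further: purified furin at 1:10 enzyme:substrate in 50 mM HEPES pH 7.5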
# Sequence (P09958 whole entry): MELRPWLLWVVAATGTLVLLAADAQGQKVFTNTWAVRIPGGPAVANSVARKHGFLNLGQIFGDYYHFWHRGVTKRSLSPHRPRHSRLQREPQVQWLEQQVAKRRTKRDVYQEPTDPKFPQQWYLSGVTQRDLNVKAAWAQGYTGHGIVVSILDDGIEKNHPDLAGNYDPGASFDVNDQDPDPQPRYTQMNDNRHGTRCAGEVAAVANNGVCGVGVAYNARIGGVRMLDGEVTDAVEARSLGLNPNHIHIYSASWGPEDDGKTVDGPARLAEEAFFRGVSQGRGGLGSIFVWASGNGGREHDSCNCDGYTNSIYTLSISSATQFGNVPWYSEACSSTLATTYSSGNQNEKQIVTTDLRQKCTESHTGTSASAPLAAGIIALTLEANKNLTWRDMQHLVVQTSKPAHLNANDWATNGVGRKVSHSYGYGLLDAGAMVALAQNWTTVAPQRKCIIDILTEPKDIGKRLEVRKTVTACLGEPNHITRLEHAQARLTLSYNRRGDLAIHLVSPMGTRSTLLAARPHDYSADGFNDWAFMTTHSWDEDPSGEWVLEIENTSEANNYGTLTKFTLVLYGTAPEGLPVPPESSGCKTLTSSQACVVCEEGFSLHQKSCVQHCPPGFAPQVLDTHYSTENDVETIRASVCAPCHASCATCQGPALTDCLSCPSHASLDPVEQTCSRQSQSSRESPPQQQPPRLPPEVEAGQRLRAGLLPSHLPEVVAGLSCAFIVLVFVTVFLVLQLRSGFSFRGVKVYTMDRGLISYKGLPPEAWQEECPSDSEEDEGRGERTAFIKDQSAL
# PROTOCOL_TEXT: furin cleavage Z-score vs untreated control; higher = more cleavage, active = 3.5 or more, inactive = 1 or less, 8 variable residues between constant flanks
# RUN_PARAMETERS: 7.5 min
The other results are listed elsewhere or left out. How many sequences the whole screen found active is unknown.
MEASUREMENT_NAME: furin cleavage Z-score

CAPKRRQKRDAGNASASA [FS-1048] = 13.5
CAHLQRQKRDAGNASASA [FS-440] = 6.68
CAILNRPKRYAGNASASA [FS-666] = 4.17
CASTCCSAHLAGNASASA [HC2520] = -0.141
CAPGAKQNVQAGNASASA [HC363] = -0.22
CARPRRLSTAAGNASASA [FS-3022] = -0.374
CASTGCSAHLAGNASASA [HC2516] = -1.2
CAPPQPEYDLAGNASASA [HC1547] = -0.102
CACPNSSIVYAGNASASA [HC264] = 0.0997
CAYNNRPWRPAGNASASA [FS-392] = -1.33
CARPVRGIHTAGNASASA [FS-3030] = 1.52
CARPPRSIVTAGNASASA [FS-2439] = 2.64
CAPINAYTTGAGNASASA [HC1191] = 0.157
CACTPCSGSWAGNASASA [HC1840] = -0.759
CARERKAGCKAGNASASA [DV2] = 0.35
CAVYTFYGMWAGNASASA [HC554] = -0.934
CALAAGVGIYAGNASASA [HC1660] = 0.247
CAEVVTSVWVAGNASASA [HC2210] = -1.35
CAHHQRPKRYAGNASASA [FS-792] = 8.28
CAENVVCCSMAGNASASA [HC2141] = -0.000681
CARTGRSREVAGNASASA [FS-3105] = 0.737
CAVVSCSMSYAGNASASA [HC2037] = 0.59
CAEKVVCCSMAGNASASA [HC2134] = -0.767
CARFRRSVPRAGNASASA [FS-2667] = 8.62
CATVSRTGRQAGNASASA [FS-1660] = 0.744
CAHNNRVGRQAGNASASA [FS-596] = 3.21
CAILRRHKRDAGNASASA [FS-1214] = 10.7
CARPPRSPDHAGNASASA [FS-2740] = 4.56
CAILRRHVGPAGNASASA [HC1111] = 0.0974
CACRFRFGRQAGNASASA [FS-405] = 2.68

Provenance of the data: the supplement of paper PMC3545927
